- Test system: CEF transfected with ATG-MYC
- Procedure Details: CEF focus assay (microtumor formation)
- Format: cell-based, chicken
- Particulars: Gallus gallus; Measured in CEF transfected with ATG-MYC
Measured Metric: pIC50
# log scale: pIC50 equals minus log10 of the concentration in mol/L

Query "NC(=O)c1ccc(-c2cc(-c3ccc(-c4nccs4)cc3)nc(-c3ccco3)c2)cc1" yields pIC50 of 5.30

----------
- Procedure Details: PK analysis of 5g, 10 mg/kg i.v.
- Format: in vivo, C57BL/6 mice
- Particulars: both sexes, C57BL/6, mouse, blood, iv; 5g; 10 mg/kg i.v., C57Bl6 mice
Measured Metric: MRT (h)
Kindly answer with a numeric value in h, unit omitted.

Query "NC(=O)c1ccc(-c2cc(-c3ccc(-c4nccs4)cc3)nc(-c3ccco3)c2)cc1" yields MRT of 4.3
